# MEASUREMENT TARGET: PRKCE (human)
# TEST PROTOCOL: split-luciferase competition binding
# MEASUREMENT CONTEXT: compound 10.0 µM
MEASURED ATTRIBUTE: inhibition (%)

A: c1ccc(-c2n[nH]cc2-c2ccnc3ccccc23)nc1
B: N#C/C(=C\c1ccc(O)c(O)c1)C(=O)NCc1ccccc1
Problem: Record comparison, field inhibition: mark the lower of A and B . Give the label of your selection.
Solution: B

I: N#CC(=C(\N)Sc1ccccc1N)/C(C#N)=C(/N)Sc1ccccc1N
II: O=C(Nc1cc(C(F)(F)F)cc(C(F)(F)F)c1)c1cc(Cl)ccc1O
III: Cn1cc(C2=C(c3cn(CCCSC(=N)N)c4ccccc34)C(=O)NC2=O)c2ccccc21
Problem: Order the records by inhibition, with each subsequent value no larger than the one before. Answer by naming the labels in the order asked.
Solution: III, II, I
